target: the molecule itself; assay: AUC + other: circular dichroism
Parameter: Kd (µM)
Numbers only, in µM.

Query MAGNGGDAALALLLLDRLNQLESKMSGKGQQQQGQTV [SARS-CoV-2 N-protein leucine-rich sequence peptide N:210-246 (NLRS)] yields Kd of 810

Each recorded value in this set is attributed to paper PMC10075959.
